The compounds listed here are annotated with their EC50.
test system: HeLa; assay: Cytotoxicity against human HeLa cells by MTT assay; assay type: cell-based
Return type: number; implicit unit µg/mL.

Before answering, review these 6 worked examples.
smiles.representation | measured.parameter | test.result
C=C[C@H]1CN(CC)CC[C@H]1CC(=C)C(=O)c1ccnc2ccccc12.O=C(O)C(O)C(O)C(=O)O | EC50 | 133
C=C[C@H]1CN(CCCC)CC[C@H]1CC(=C)C(=O)c1ccnc2ccccc12.O=C(O)C(O)C(O)C(=O)O | EC50 | 138
C=C[C@H]1CN(CCCCC)CC[C@H]1CC(=C)C(=O)c1ccnc2ccccc12.O=C(O)C(O)C(O)C(=O)O | EC50 | 104
C=C[C@H]1CN2CC[C@H]1C[C@@H]2[C@@H](O)c1ccnc2ccccc12 | EC50 | 697
CCCCCCCCCc1ccc(OCCOCCOCCOCCOCCOCCOCCOCCOCCO)cc1 | EC50 | 33.2
C=C[C@H]1CN(CCC)CC[C@H]1CCC(=O)c1ccnc2ccccc12.O=C(O)C(O)C(O)C(=O)O | EC50 | 276

Next compound, please.
Consider the compound C=C[C@H]1CN(CCCCC)CC[C@H]1CCC(=O)c1ccnc2ccccc12.O=C(O)C(O)C(O)C(=O)O and give its recorded EC50. 19.1
